Listed molecules paired with reported GI50
tested on: MOLT-4; assay: NCI tumour cell line growth inhibition, 48 h
Calls of active or inactive are those of the source. Rule as the data show it: active = GI50 up to about 1.1 µM and inactive = higher.

{"Molecule": "Cc1c(Cl)ccc2c1NC(=O)C2(O)CC(=O)c1ccc(Cl)cc1 (stereo not given)", "GI50": "17.7 µM (inactive)"}
{"Molecule": "CCCCOCCOC1=C(Cl)C(=O)c2c(O)ccc(O)c2C1=O", "GI50": "0.051 µM (active)"}
{"Molecule": "CC(C)OC(=O)NCCn1cc(-c2ccccc2)nn1", "GI50": "> 100 µM (inactive)"}
{"Molecule": "COCCOCc1nc(C#N)c(N)o1", "GI50": "> 100 µM (inactive)"}

Sure, the documented GI50 for COc1cc(/C=[N+](\[O-])c2ccccc2Cl)ccc1OC(=S)S is 27 µM (inactive)

Sure, the documented GI50 for CCOC(=O)C1C(c2ccc3c(c2)OCO3)c2c(n[nH]c2O)CC1(C)O (stereo not given) is > 100 µM (inactive)

Sure, the documented GI50 for CC(C)c1cc(CN(C)C)c(O)c(C(C)(C)C)c1 is 26.2 µM (inactive)

Sure, the documented GI50 for CC(=O)Oc1ccc2c3c1O[C@H]1[C@H](O)CC[C@@]4(O)[C@@H](C2)N(C)CC[C@]314 is > 100 µM (inactive)

Sure, the documented GI50 for COc1cc(/C=C/c2ccc(OC)c(OC)c2)cc(OC)c1 [(E)-3,4,3',5'-TETRAMETHOXYSTILBENE] is 46.6 µM (inactive)

Sure, the documented GI50 for COC(=O)c1nc2c(C)c(O)c(O)c([C@H](C)CCC=C(C)C)c2o1 is 24.9 µM (inactive)

----------
test system: NCI-H522; test: NCI tumour cell line growth inhibition, 48 h
The source made the active and inactive calls. Cut-off read from the data, not from the text of the source: active = GI50 up to about 1.1 µM and inactive = higher.
Listed compounds paired with reported GI50

Example compounds with recorded GI50:
{"Compound": "C1CSCC2(COC2)CSCCSCC2(COC2)CS1", "GI50": "> 100 µM (inactive)"}
{"Compound": "COc1ccc(OC)c(-c2cc(=O)c3c(OC)c(OC)c(OC)c(OC)c3o2)c1", "GI50": "20 µM (inactive)"}

Sure, the documented GI50 for O=C(Nc1ccccc1-c1nn(CO)c(=S)n(CO)c1=O)C(F)(F)F is > 100 µM (inactive)

Sure, the documented GI50 for O=C1C(C(O)(C(F)(F)Cl)C(F)(F)Cl)CCC1C(O)(C(F)(F)Cl)C(F)(F)Cl (centres undefined) is 4.45 µM (inactive)

----------
Listed compounds paired with reported GI50
test system: HT-29; experiment: NCI tumour cell line growth inhibition, 48 h
Activity calls are given as the source filed them. No stated cut-off is given here; in the data, active = GI50 up to about 1.1 µM and inactive = higher.

{"Compound": "O=c1c(Cl)cc2nc3ccccc3sc-2c1Cl", "Measured property": "GI50", "Measured result": "23.2 µM (inactive)"}
{"Compound": "O=C1C2C3C=CC(C2C(=O)N1CN1CCOCC1)C1C2C(=O)N(CN4CCOCC4)C(=O)C2C31 (centres undefined)", "Measured property": "GI50", "Measured result": "> 60 µM (inactive)"}
{"Compound": "C=C(c1ccccc1)c1ccccc1-c1cc(-c2ccccc2)cc(-c2ccccc2)n1", "Measured property": "GI50", "Measured result": "99.5 µM (inactive)"}
{"Compound": "NCCCN(CCCN)CCCNCc1c2ccccc2c(CNCCCN(CCCN)CCCN)c2ccccc12", "Measured property": "GI50", "Measured result": "11 µM (inactive)"}
{"Compound": "Fc1ccccc1-c1cc(S)c2cc3c(cc2n1)OCO3", "Measured property": "GI50", "Measured result": "17.2 µM (inactive)"}

Sure, the documented GI50 for O=C([C@H](O)[C@@H](O)c1cccc(Cl)c1)C12CC3CC(CC(C3)C1)C2 is 2.37 µM (inactive)

Sure, the documented GI50 for COC(=O)c1c(C)cccc1C1CN=NC12Cc1cc(C)c(C)cc1C2=O (centres undefined) is 36.8 µM (inactive)

Sure, the documented GI50 for COc1ccc(/C=C2/CCCC/C2=N/O)cc1 is > 100 µM (inactive)

Sure, the documented GI50 for CCCCNC(=S)N/N=C/c1cccc(C)n1 is > 10 µM (inactive)
